- Tested target: Voltage-dependent calcium channel subunit alpha-2/delta-1 (Homo sapiens, UniProt P54289)
- Sequence (P54289 25-956 limits assumed): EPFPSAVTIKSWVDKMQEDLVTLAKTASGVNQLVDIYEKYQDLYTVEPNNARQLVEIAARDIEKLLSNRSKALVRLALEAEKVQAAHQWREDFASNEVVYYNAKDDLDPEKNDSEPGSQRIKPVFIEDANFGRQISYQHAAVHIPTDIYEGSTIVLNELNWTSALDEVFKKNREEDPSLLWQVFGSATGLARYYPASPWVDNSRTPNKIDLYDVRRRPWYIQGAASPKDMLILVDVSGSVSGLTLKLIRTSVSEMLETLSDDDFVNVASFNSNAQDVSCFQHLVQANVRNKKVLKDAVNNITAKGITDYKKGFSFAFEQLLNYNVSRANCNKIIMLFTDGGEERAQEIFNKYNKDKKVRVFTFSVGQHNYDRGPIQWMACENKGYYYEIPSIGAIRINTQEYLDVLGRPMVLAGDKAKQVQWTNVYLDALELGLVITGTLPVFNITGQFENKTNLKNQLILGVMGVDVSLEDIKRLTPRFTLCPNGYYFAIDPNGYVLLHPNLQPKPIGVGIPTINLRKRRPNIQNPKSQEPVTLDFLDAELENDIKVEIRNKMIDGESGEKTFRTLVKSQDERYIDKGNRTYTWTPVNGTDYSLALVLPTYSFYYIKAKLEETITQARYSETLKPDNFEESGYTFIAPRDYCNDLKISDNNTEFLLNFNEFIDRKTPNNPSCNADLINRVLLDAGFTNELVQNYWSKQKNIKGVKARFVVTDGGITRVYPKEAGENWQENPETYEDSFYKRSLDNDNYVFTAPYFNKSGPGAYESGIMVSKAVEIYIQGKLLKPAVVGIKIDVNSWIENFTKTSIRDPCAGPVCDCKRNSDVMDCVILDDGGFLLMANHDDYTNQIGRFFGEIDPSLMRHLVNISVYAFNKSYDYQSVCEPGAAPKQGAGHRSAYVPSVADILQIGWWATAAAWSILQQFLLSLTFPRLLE
- Sequence (P54289 957-1103 limits assumed): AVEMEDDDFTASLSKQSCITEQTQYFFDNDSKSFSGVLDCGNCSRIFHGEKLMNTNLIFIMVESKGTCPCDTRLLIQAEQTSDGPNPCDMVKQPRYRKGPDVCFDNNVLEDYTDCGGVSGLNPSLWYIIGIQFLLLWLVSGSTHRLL
- Experiment description: Binding affinity against alpha-2 delta-1 subunit of voltage gated subunit of Ca+2 channel in human
pIC50: −log10 of the molar value.
Recorded pIC50 by entry

Smiles string: COCc1nnc2c3ccccc3c(OCc3cccc(CNCCc4ccccc4)n3)nn12
Tested target: Voltage-dependent calcium channel subunit alpha-2/delta-1 (Homo sapiens, UniProt P54289)
pIC50: 6.88
//
Smiles string: Cc1nnc2c3ccccc3c(OCc3cccc(CNCCc4ccccc4)n3)nn12
Tested target: Voltage-dependent calcium channel subunit alpha-2/delta-1 (Homo sapiens, UniProt P54289)
pIC50: 6.84
//
Smiles string: Cc1cc(-c2nnc3c4ccccc4c(OCc4cccc(CNCCc5ccccc5)n4)nn23)no1
Tested target: Voltage-dependent calcium channel subunit alpha-2/delta-1 (Homo sapiens, UniProt P54289)
pIC50: 6.66
//
Smiles string: COc1cccc(CCNCc2cccc(COc3nn4c(C(F)(F)F)nnc4c4ccccc34)n2)c1
Tested target: Voltage-dependent calcium channel subunit alpha-2/delta-1 (Homo sapiens, UniProt P54289)
pIC50: 6.94
